Below, each of the binders is paired with its reported Top (MFI) value.
# Tgt: T1, human AMHRII (anti-Mullerian hormone receptor type 2) (human, UniProt Q16671 18-573)
# T1 construct: whole, on cells; also called AMHR2; human AMHR2
# T1 sequence (looked up): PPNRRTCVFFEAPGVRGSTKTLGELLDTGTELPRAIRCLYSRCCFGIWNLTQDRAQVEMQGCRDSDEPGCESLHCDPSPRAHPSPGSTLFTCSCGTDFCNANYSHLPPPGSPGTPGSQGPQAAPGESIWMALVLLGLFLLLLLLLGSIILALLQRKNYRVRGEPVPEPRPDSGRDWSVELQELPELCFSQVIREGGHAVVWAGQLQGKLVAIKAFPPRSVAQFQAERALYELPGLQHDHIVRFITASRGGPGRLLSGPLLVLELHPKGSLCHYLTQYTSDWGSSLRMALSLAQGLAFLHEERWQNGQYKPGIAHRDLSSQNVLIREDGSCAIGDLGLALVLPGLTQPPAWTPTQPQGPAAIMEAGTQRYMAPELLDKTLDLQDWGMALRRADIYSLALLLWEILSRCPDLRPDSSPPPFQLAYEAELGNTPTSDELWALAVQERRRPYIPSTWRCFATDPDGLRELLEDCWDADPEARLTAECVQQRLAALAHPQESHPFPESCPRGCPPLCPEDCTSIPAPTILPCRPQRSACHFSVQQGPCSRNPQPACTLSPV
# Measurement description: FACS on CHO-K1 cells over-expressing human AMHR2
Provide only the numeric value, understood in MFI.

31D9B3 VH1-VL2.1 hIgG1 (antibody, V domains shown, Humanized, PTM de-risked (VL D(30C)S), human IgG1; also called 31D9B3 VH1-VL2.1 hlgG1) VH: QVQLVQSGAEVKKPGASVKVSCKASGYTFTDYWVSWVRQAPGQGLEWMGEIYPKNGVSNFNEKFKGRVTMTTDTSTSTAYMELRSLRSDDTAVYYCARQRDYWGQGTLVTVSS VL: DVVMTQSPLSLPVTLGQPASISCRSSQSLEYGSGYTYLEWYLQRPGQSPRLLIYGVSNRFSGVPDRFSGSGSGTDFTLKISRVEAEDVGVYYCFQATHDPNTFGQGTKLEIK; 10400
31D9B3 VH1-VL2.2 hIgG1 (antibody, V domains shown, Humanized, PTM de-risked (VL G(30D)R), human IgG1; also called 31D9B3 VH1-VL2.2 hlgG1) VH: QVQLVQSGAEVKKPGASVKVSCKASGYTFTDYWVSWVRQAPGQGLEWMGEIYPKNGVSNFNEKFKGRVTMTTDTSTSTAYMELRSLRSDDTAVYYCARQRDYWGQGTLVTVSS VL: DVVMTQSPLSLPVTLGQPASISCRSSQSLEYGDRYTYLEWYLQRPGQSPRLLIYGVSNRFSGVPDRFSGSGSGTDFTLKISRVEAEDVGVYYCFQATHDPNTFGQGTKLEIK; 22400
31D9B3 VH1.1-VL2.1 hIgG1 (antibody, V domains shown, Humanized, PTM de-risked, human IgG1; also called 31D9B3 VH1.1-VL2.1 hlgG1) VH: QVQLVQSGAEVKKPGASVKVSCKASGYTFTDYWVSWVRQAPGQGLEWMGEIYPKEGVSNFNEKFKGRVTMTTDTSTSTAYMELRSLRSDDTAVYYCARQRDYWGQGTLVTVSS VL: DVVMTQSPLSLPVTLGQPASISCRSSQSLEYGSGYTYLEWYLQRPGQSPRLLIYGVSNRFSGVPDRFSGSGSGTDFTLKISRVEAEDVGVYYCFQATHDPNTFGQGTKLEIK; 2170

Look at this binder and give its reported Top (MFI). 94C4C3 H1L2 hIgG1 (antibody, V domains shown, Humanized, human IgG1; also called 94C4C3 H1L2 hlgG1) VH: QLQLQESGPGLVKPSETLSLTCTVSGYSITSDYAWNWIRQPPGKGLEWIGYISYSGSISYNPSLKSRVTISVDTSKNQFSLKLSSVTAADTAVYYCARSRYSWFDYWGQGTLVTVSS VL: EIVLTQSPGTLSLSPGERATLSCSASESVDTYGNSFMHWYQQKPGQPPRLLIYRASSLESGIPVRFSGSGSRTDFTLTISRLEPEDFAVYYCQQSNEDPYTFGGGTKVEIK
49600
